quantity.kind: melting point

>  <structure.string>
COc1cc(C2CCN(C)CC2)c2cc1Nc1ncc(Cl)c(n1)Nc1cc(ccc1N(C)S(C)(=O)=O)/C=C\2

>  <quantity.kind>
melting point

>  <value>
244 to 246 °C

$$$$
>  <structure.string>
COc1cc(N2CCN(C)CC2)c2cc1Nc1ncc(Cl)c(n1)Nc1cc(ccc1N(C)S(C)(=O)=O)/C=C\2

>  <quantity.kind>
melting point

>  <value>
278 to 280 °C

$$$$

Qu. I have this molecule here, CN1CCN(c2ccc3cc2CCc2ccc(S(C)(=O)=O)c(c2)Nc2nc(ncc2Cl)N3)CC1 , and I need its recorded melting point.
Ans. > 250 °C

Qu. I have this molecule here, CC(C)S(=O)(=O)c1ccc2cc1Nc1nc(ncc1Cl)Nc1ccc(N3CCN(C)CC3)c(c1)CC2 , and I need its recorded melting point.
Ans. > 250 °C

----------
Item-by-item account of IC50
system.name: human insulin receptor cytoplasmic domain (βIRCD) (Homo sapiens, UniProt P06213)
Construct: human insulin receptor cytoplasmic domain (βIRCD); host or cells: baculovirus expression system
Sequence (P06213 980-1382 limits assumed): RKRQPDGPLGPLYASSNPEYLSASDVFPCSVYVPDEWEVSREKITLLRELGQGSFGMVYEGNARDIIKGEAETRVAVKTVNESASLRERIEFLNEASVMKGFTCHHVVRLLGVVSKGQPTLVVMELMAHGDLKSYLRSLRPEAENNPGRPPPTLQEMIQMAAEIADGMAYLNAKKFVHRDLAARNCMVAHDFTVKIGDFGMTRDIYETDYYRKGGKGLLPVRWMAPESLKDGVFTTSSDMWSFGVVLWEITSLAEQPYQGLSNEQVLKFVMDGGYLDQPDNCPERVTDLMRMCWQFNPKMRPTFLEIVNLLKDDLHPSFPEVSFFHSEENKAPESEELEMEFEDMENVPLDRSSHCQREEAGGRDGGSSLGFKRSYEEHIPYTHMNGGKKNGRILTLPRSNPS
experimental.protocol: Insulin Receptor Kinase Assay (TRF)
Type: biochemical
settings: 20 μM ATP; given as numeric bound; read-out: IR IC50

>  <molecule>
CN1CCN(c2ccc3cc2/C=C\c2ccc(N(C)S(C)(=O)=O)c(c2)Nc2nc(ncc2Cl)N3)CC1 [Example 9]

>  <IC50>
> 2000 nM

$$$$
>  <molecule>
COc1cc(C2CCN(C)CC2)c2cc1Nc1ncc(Cl)c(n1)Nc1cc(ccc1N(C)S(C)(=O)=O)/C=C\2 [Example 7]

>  <IC50>
> 2000 nM

$$$$
>  <molecule>
COc1ccc2cc1Nc1nc(ncc1Cl)Nc1ccc(N3CCN(C)CC3)c(c1)/C=C\2 [Example 13]

>  <IC50>
> 3000 nM

$$$$
>  <molecule>
O[C@@H]1c2cccc(c2)Nc2nc(ncc2Cl)Nc2cccc(c2)[C@@H]1O [Example 26]

>  <IC50>
> 3000 nM

$$$$
>  <molecule>
COc1cc(N2CCN(C)CC2)c2cc1Nc1ncc(Cl)c(n1)Nc1cc(ccc1N(C)S(C)(=O)=O)/C=C\2 [Example 4]

>  <IC50>
> 2000 nM

$$$$

The record that follows has no IC50 shown yet.
Qu. I have this molecule here, COc1c2cc(c3c1CC[C@@H](N1CCOCC1)CC3)CCc1ccc(N(C)S(C)(=O)=O)c(c1)Nc1nc(ncc1Cl)N2 [Example 29] , and I need its recorded IC50.
Ans. > 3000 nM

----------
Item-by-item account of IC50
system.name: recombinant human FAK (Homo sapiens)
Construct: purchased Invitrogen PV3832; host or cells: baculovirus expression system
experimental.protocol: FAK Enzyme Assay (TRF detection)
Format: biochemical
settings: 10 μM ATP; given as numeric bound
Procedure: Example compounds were tested for their ability to inhibit the kinase activity of baculovirus-expressed recombinant human FAK using the TRF detection system as described above for JAK2. IC50 runs were performed in 96-well Costar high binding plates (#3922). […] Plates were agitated for 10 minutes and fluorescence of the resulting solution measured using the PerkinElmer EnVision™ 2102 (or 2104) multi-label plate reader. […]

>  <compound>
COc1cc(N2CCN(C)CC2)c2cc1Nc1ncc(Cl)c(n1)Nc1cc(ccc1N(C)S(C)(=O)=O)/C=C\2 [Example 4]

>  <quantity.kind>
IC50

>  <value>
> 3000 nM

$$$$

Qu. I have this compound here, O[C@@H]1c2cccc(c2)Nc2nc(ncc2Cl)Nc2cccc(c2)[C@@H]1O [Example 26] , and I need its recorded IC50.
Ans. > 1000 nM

----------
system.name: human insulin receptor cytoplasmic domain (βIRCD) (Homo sapiens)
Construct: human insulin receptor cytoplasmic domain (βIRCD); host or cells: baculovirus expression system
experimental.protocol: Insulin Receptor Kinase Assay (TRF)
Assay type: biochemical
settings: 20 μM ATP; average of two or more determinations; class symbols; read-out: IR IC50
pIC50: −log10 of the molar value.
quantity.kind: pIC50

>  <structure.string>
Clc1cnc2nc1Nc1cccc(c1)CCc1cc(ccc1N1CCOCC1)N2

>  <system.name>
human insulin receptor cytoplasmic domain (βIRCD) (Homo sapiens)

>  <value>
< 5.00

$$$$

Qu. I have this compound here, CN1CCN(c2ccc3cc2CCc2cccc(c2)Nc2nc(ncc2Cl)N3)CC1 , and I need its recorded pIC50.
Ans. 6.00 to 7.00

Qu. I have this compound here, CNC(=O)c1ccc2cc1Nc1nc(ncc1Cl)Nc1ccc(N3CCN(C)CC3)c(c1)CC2 , and I need its recorded pIC50.
Ans. 6.00 to 7.00

Qu. I have this compound here, Clc1cnc2nc1Nc1cccc(c1)CCc1cc(ccc1OCCN1CCCC1)N2 , and I need its recorded pIC50.
Ans. 6.00 to 7.00

Qu. I have this compound here, COc1ccc2cc1Nc1nc(ncc1Cl)Nc1ccc(N3CCN(C)CC3)c(c1)CC2 , and I need its recorded pIC50.
Ans. 6.00 to 7.00

Qu. I have this compound here, CN1CCN(c2ccc3cc2/C=C\c2cccc(c2)Nc2nc(ncc2Cl)N3)CC1 , and I need its recorded pIC50.
Ans. 5.00 to 6.00

Qu. I have this compound here, COc1cc(N2CCN(C)CC2)c2cc1Nc1ncc(Cl)c(n1)Nc1cc(ccc1S(=O)(=O)C(C)C)CC2 , and I need its recorded pIC50.
Ans. 7.00 to 8.00

Qu. I have this compound here, COc1cc(N2CCN(C)CC2)c2cc1Nc1ncc(Cl)c(n1)Nc1cccc(c1)CC2 , and I need its recorded pIC50.
Ans. 6.00 to 7.00

Qu. I have this compound here, CC(C)S(=O)(=O)c1ccc2cc1Nc1nc(ncc1Cl)Nc1ccc(N3CCN(C)CC3)c(c1)CC2 , and I need its recorded pIC50.
Ans. 7.00 to 8.00

Qu. I have this compound here, Clc1cnc2nc1Nc1cccc(c1)/C=C\c1cc(ccc1N1CCOCC1)N2 , and I need its recorded pIC50.
Ans. < 5.00

Qu. I have this compound here, CN1CCN(c2ccc3cc2CCc2ccc(N(C)S(C)(=O)=O)c(c2)Nc2nc(ncc2Cl)N3)CC1 , and I need its recorded pIC50.
Ans. 6.00 to 7.00

Qu. I have this compound here, CC(C)S(=O)(=O)c1ccc2cc1Nc1nc(ncc1Cl)Nc1ccc(N3CCN(C)CC3)c(c1)/C=C\2 , and I need its recorded pIC50.
Ans. 5.00 to 6.00

Qu. I have this compound here, COc1cc(C2CCNCC2)c2cc1Nc1ncc(Cl)c(n1)Nc1cc(ccc1N(C)S(C)(=O)=O)CC2 , and I need its recorded pIC50.
Ans. 6.00 to 7.00

Qu. I have this compound here, COc1cc(N2CCN(C)CC2)c2cc1Nc1ncc(Cl)c(n1)Nc1cc(ccc1N(C)S(C)(=O)=O)CC2 , and I need its recorded pIC50.
Ans. 7.00 to 8.00

Qu. I have this compound here, COc1ccc2cc1Nc1nc(ncc1Cl)Nc1ccc(N3CCOCC3)c(c1)CC2 , and I need its recorded pIC50.
Ans. < 5.00

----------
system.name: baculovirus-expressed JAK2 (Homo sapiens, UniProt O60674)
Construct: host or cells: baculovirus expression system
Sequence (O60674 whole entry): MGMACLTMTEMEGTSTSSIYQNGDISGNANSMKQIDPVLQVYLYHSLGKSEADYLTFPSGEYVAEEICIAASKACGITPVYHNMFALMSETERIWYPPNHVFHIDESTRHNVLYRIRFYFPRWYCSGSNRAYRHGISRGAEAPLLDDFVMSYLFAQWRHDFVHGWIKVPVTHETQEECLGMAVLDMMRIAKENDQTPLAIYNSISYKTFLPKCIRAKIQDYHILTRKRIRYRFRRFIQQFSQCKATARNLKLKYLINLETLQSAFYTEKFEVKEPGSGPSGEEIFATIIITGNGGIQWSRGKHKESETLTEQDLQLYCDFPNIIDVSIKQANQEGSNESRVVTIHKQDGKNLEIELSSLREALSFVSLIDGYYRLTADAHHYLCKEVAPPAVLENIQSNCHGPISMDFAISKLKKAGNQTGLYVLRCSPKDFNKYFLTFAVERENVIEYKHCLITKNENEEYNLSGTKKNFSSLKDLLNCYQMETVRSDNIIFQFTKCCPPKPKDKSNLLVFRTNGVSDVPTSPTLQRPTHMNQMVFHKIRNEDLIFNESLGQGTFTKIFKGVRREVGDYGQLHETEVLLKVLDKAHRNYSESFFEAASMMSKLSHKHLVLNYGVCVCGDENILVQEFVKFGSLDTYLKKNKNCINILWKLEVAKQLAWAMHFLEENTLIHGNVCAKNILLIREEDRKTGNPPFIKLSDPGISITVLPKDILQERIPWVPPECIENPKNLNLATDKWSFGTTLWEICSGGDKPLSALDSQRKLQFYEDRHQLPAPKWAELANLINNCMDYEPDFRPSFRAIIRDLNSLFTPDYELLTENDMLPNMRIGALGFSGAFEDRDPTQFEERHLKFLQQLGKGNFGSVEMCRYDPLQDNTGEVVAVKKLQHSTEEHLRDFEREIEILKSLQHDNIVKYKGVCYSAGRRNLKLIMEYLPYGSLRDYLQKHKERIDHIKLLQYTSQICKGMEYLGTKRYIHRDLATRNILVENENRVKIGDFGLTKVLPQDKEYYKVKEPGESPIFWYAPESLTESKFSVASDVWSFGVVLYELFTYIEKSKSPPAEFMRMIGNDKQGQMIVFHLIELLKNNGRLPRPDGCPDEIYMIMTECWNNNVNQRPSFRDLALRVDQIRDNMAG
experimental.protocol: JAK2 Kinase Assay (TRF detection)
Assay type: biochemical
settings: 0.2 μM ATP; average of two or more determinations; class symbols
quantity.kind: IC50

Example cases with answers are listed next.
>  <structure.string>
COc1cc(C2CCN(C)CC2)c2cc1Nc1ncc(Cl)c(n1)Nc1cc(ccc1N(C)S(C)(=O)=O)/C=C\2

>  <IC50>
1000 to 10000 nM

$$$$
>  <structure.string>
CN1CCN(c2ccc3cc2CCc2ccc(S(C)(=O)=O)c(c2)Nc2nc(ncc2Cl)N3)CC1

>  <IC50>
10 to 100 nM

$$$$

The record that follows has no IC50 shown yet.
Qu. I'm curious: which IC50 was measured for Clc1cnc2nc1Nc1cccc(c1)/C=C\c1cc(ccc1N1CCOCC1)N2 tested on baculovirus-expressed JAK2 (Homo sapiens, UniProt O60674)?
Ans. < 10 nM

----------
system.name: recombinant human FAK (Homo sapiens, UniProt Q05397)
Construct: purchased Invitrogen PV3832; host or cells: baculovirus expression system
Sequence (Q05397 whole entry): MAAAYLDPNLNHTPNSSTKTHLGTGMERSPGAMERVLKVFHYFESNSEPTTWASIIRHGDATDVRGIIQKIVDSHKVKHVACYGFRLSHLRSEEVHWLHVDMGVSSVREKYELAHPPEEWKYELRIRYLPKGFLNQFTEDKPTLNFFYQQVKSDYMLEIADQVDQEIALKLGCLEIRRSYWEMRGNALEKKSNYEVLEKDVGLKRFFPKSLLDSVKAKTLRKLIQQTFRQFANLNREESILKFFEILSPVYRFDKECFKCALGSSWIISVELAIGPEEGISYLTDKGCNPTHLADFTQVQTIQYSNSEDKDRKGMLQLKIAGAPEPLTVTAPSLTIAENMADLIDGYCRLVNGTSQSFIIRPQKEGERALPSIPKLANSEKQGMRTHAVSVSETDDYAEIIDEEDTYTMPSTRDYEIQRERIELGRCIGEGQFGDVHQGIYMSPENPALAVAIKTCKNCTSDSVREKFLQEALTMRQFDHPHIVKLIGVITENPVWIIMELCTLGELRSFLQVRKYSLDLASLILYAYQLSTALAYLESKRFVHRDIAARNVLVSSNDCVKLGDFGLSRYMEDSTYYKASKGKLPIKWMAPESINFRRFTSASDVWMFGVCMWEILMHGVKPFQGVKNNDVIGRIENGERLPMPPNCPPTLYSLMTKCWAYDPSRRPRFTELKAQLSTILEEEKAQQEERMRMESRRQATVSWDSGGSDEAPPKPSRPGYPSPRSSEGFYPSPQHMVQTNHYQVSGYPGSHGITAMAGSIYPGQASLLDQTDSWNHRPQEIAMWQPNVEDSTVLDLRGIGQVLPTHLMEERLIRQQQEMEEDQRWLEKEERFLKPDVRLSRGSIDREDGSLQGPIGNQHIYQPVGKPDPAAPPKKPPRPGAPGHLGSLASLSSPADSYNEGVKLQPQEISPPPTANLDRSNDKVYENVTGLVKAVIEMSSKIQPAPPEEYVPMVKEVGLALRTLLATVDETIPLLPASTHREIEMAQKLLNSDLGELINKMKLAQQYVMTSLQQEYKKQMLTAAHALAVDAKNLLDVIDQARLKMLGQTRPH
experimental.protocol: FAK Enzyme Assay (TRF detection)
Assay type: biochemical
settings: 10 μM ATP; average of two or more determinations; class symbols
quantity.kind: IC50

>  <compound>
COc1cc(N2CCN(C)CC2)c2cc1Nc1ncc(Cl)c(n1)Nc1cc(ccc1S(=O)(=O)C(C)C)CC2 [Example 6]

>  <IC50>
< 10 nM

$$$$
>  <compound>
COc1cc(C2CCN(C)CC2)c2cc1Nc1ncc(Cl)c(n1)Nc1cc(ccc1N(C)S(C)(=O)=O)/C=C\2 [Example 7]

>  <IC50>
< 10 nM

$$$$
>  <compound>
Clc1cnc2nc1Nc1cccc(c1)CCc1cc(ccc1N1CCOCC1)N2 [Example 25]

>  <IC50>
> 10000 nM

$$$$

The record that follows has no IC50 shown yet.
Qu. I have this compound here, CN1CCN(c2ccc3cc2/C=C\c2ccc(S(C)(=O)=O)c(c2)Nc2nc(ncc2Cl)N3)CC1 [Example 18] , and I need its recorded IC50.
Ans. 10 to 100 nM
